biological target: SARS-CoV 3CL^pro (Severe acute respiratory syndrome coronavirus, UniProt P0C6X7)
# if measured IC50 < 90 µM: satisfied  # else: not satisfied

Threshold test, IC50 < 90 µM: CC(C)=CCc1cc(-c2oc3cc(O)c(CC=C(C)C)c(O)c3c(=O)c2O)cc(O)c1O
not satisfied

More entries:
Threshold test, IC50 < 90 µM: CC(C)=CCc1c(CCCc2ccc(O)cc2O)cc(O)c(O)c1CC=C(C)C
satisfied

Threshold test, IC50 < 90 µM: CC(C)=CCc1c([C@@H]2CCc3ccc(O)cc3O2)cc2c(c1O)OC(C)(C)C=C2
not satisfied

Threshold test, IC50 < 90 µM: CC(C)=CCc1cc([C@@H]2CCc3ccc(O)cc3O2)c(CC=C(C)C)c(O)c1O
satisfied

Threshold test, IC50 < 90 µM: O=C(/C=C/c1ccc(O)cc1)c1ccc(O)cc1O [Isoliquiritigenin, isoliquiritigenin, reference compound]
satisfied

Threshold test, IC50 < 90 µM: CC(C)=CCc1cc(C2CCc3ccc(O)cc3O2)cc(O)c1O (centres unmarked)
satisfied
